Exercise: state measured inhibition for each of the molecules provided.
- tested_on: N-glycosylase/DNA lyase (Homo sapiens) (UniProt O15527)
- Sequence (O15527 whole entry): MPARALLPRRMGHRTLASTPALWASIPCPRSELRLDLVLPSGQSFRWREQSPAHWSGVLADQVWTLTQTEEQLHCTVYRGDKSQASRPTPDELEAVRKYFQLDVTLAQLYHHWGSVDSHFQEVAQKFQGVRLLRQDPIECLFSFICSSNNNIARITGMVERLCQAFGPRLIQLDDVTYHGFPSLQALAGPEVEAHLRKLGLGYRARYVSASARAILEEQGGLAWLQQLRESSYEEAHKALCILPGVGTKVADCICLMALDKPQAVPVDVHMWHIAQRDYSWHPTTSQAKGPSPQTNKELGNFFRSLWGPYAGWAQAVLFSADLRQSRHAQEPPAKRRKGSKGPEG
- measurement_conditions: Compound Concentration 10.0 uM, Hit No;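 also: OGG1 cleavage of a quenched duplex DNA oligonucleotide, coupled to APE1 for strand incision, read as fluorescence at 594 nm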
- Description: Inhibition of OGG1 by quantifying inhibition of OGG1-mediated cleavage and dissociation of quenched duplex DNA oligonucleotides, measured as fluorescence at 594 nm. To generate a functional strand incision and increase turn-over this assay is coupled to APE1.
One number for each entry, in %.

Please review the entries below; each comes with its answer.
Cc1cc(OC2CCS(=O)(=O)CC2)cc(C)c1-c1cccc(COc2ccc(CCC(=O)O)c(F)c2)c1 :: 48.4
Cc1cc(NC(=O)NCCN2CCC(O)(Cc3ccccc3)CC2)c2ccccc2n1 :: -6.59
Cc1cc(C(=O)N2CCN(C3CN(C(=O)c4ccc(-c5ccccc5)cc4)C3)CC2)no1 :: -2.62
COc1ccc(CNC(=O)c2cc(-c3cncc(Cl)c3)cnc2-c2ccccn2)nc1OC :: -1.43
CO[C@@H](C)c1c(Nc2ccc([C@H](N(C)C(=O)C3CCS(=O)(=O)CC3)C(F)(F)F)cc2)cnc2cc(Cl)nn12 :: -4

Here are 7 molecules. What values of inhibition were reported for them?
1. C[C@@](Cc1c[nH]c2ccccc12)(NC(=O)Nc1ccc([N+](=O)[O-])cc1)C(=O)NCC1(c2ccccn2)CCCCC1
2. CCOC(=O)Nc1ccc2c(c1)N(C(=O)CN(CC)CC)c1ccccc1CC2
3. O=C(N[C@@H]1C2CCN(CC2)[C@H]1Cc1cccnc1)c1cc2ccccc2o1
4. Clc1cccc(Cl)c1NC1=NCCN1
5. Cc1onc(-c2ccc(F)cc2)c1COc1ccc(C(=O)N2CCS(=O)(=O)CC2)cn1
6. CCOC(=O)c1c(C)[nH]c2ccc3c(c12)CN1CCc2cc(OC)ccc2C1O3 (centres undefined)
7. NC(N)=Nc1nc(CSCC/C(N)=N/S(N)(=O)=O)cs1

-2.05
-1.34
-7.23
-5.49
-9.75
32.3
2.35

Each molecule below has a reported value. Please supply its inhibition.
1. CN(CCN1CCC(OC(=O)Nc2ccccc2-c2ccccc2)CC1)C(=O)c1ccc(CN2CCC(C(N)=O)CC2)cc1
2. CCCn1c(=O)c2[nH]c(-c3ccc(OCC(=O)Nc4ccc(C#N)cc4)cc3)nc2n(CCC)c1=O
3. FC(F)(F)c1cccc(-c2noc(-c3cc(-c4ccccc4)c(C(F)(F)F)s3)n2)c1

-7.57
-7.63
-2.17

Hey, can you go through the list below and give me inhibition for every item?
1. CCCCOCCOc1nc(-c2ccc(C(=O)O)c(F)c2)sc1C
2. CCOC(=O)N1CCC(NS(=O)(=O)c2ccc(NC(=O)c3ccccc3C)c3ccccc23)CC1
3. CC(C)(C)c1ccc(C(=O)Nc2cn3cc(-n4ccnc4)ccc3n2)cc1
4. CCOC(=O)C1=C(C)NC(C)=C(C(=O)OC)C1c1cccc([N+](=O)[O-])c1 (centres undefined)

1: 14.4; 2: 6.16; 3: 22.7; 4: -2.89

Reference source: ChEMBL document CHEMBL5665443
